Recorded melting point for the following compounds

Consider the following illustrative entries.
Compound: CC(=O)OCc1c(S(C)(=O)=O)ccc(C(=O)O)c1Cl
Observed: 219 to 223 °C
//
Compound: COc1ccc(-n2c(=O)cc(C(F)(F)F)n(N)c2=O)cc1
Observed: 176 to 178 °C

input: GET /values?readout=melting point&item= "C[Si](C)(C)C#Cc1ccc([N+](=O)[O-])cc1"
output: 95 to 100 °C

input: Dear colleague, I am looking for the recorded melting point of the following compound: "Cc1cc(O)c(SCCC(C)C)c(=O)o1"
output: 81 to 82 °C

input: Dear colleague, I am looking for the recorded melting point of the following compound: "COc1ccc(C=CC(=O)c2c(O)cc(OC)cc2OC(C)C)cc1"
output: 113 °C

input: Look at this compound and give its reported melting point. CC(=NOCCOc1ccc(CC2SC(=O)NC2=O)cc1)c1ccc(S(=O)(=O)c2ccncc2)cc1 (stereo not drawn)
output: 213 to 215 °C

input: # input compound: "Nc1ccc(-c2n[nH]c3c2sc2ccccc23)cc1" ; wanted: its melting point
output: 113 to 115 °C

input: Can you share its melting point? I mean this compound: "Cn1cc(-c2cccc(N3CCc4c(sc5c4CCCC5)C3=O)c2CO)nc(Nc2cnn(CCO)c2)c1=O"
output: 198 to 199 °C

====

Let's look at some compounds and their measured melting point.

Compound: O=c1c(Cl)coc2cc(OCCCCl)ccc12
melting point: 101 to 103 °C
//
Compound: CN1CC2CC(=O)CC(C1)N2C
melting point: 72 to 73 °C
//
Compound: Cc1cccc(COCCCC(=O)O)c1
melting point: 53 to 54 °C

input: I would be grateful if you could share the reported melting point for "COc1cc(Nc2c(C#N)cnc3cc(-c4ccc(N5CCOCC5)cc4)ccc23)c(Cl)cc1Cl" .
output: 162 to 164 °C

input: Bench note: what melting point did "CCN1C2=C(C(=O)Nc3ccccc3F)C(=O)CCN2c2ccccc21" show?
output: 142 to 143 °C

input: Given "Cc1nc2c(OCc3ccccc3)nccn2c1N" , state its recorded melting point.
output: 126 to 133 °C

input: What value of melting point has been reported for the following compound? CC(C)(CC(O)(Cn1ccc2c1CCCC2=O)C(F)(F)F)c1cccc2c1OCC2 (configuration not stated)
output: 145 to 146 °C

====

Measured Property: melting point

Compound: CCOC(=O)C(C)Oc1ccc(Oc2nc3ccc(Cl)nc3s2)cc1 (stereo not drawn)
melting point: 60 to 62 °C
//
Compound: CCCn1cnc(CO)c1C
melting point: 88 to 88.5 °C

Consider now this further compound.
input: # get_value(readout='melting point', item= O=C1OC(P(=O)(O)C2OC(=O)c3ccccc32)c2ccccc21 (stereo not drawn) )
output: 280 to 285 °C

====

Measured Property: melting point

Past entries and their recorded results:
Compound: O=C1N(Cc2ccccn2)c2cccc(-c3cccnc3)c2C12COc1cc3c(cc12)CCO3 (configuration not stated)
melting point: > 200 °C

Compound: COc1cc2c(c(Cl)c1Cl)C(=O)C(C)C2 (configuration not stated)
melting point: 129 °C

input: For Cn1nc(N2c3cccc(F)c3CC2C(=O)N2CCCCCC2)ccc1=O (configuration not stated) , what is its reported melting point?
output: 211 to 213 °C

input: Could you tell me which melting point is on file for "Cc1nc(C(=O)O)c(OCc2ccccc2)c(=O)n1C" ?
output: 180 to 181 °C

input: Could you share which melting point value was measured for "CCCCCCCCN1CC=C(c2c[nH]c(-c3ccc(F)cc3)c2-c2ccncc2)CC1" ?
output: 173 to 175 °C

input: Looking for the measured melting point of "CCOc1ccc(-c2nc(O)c(-c3ccccc3)s2)cc1" , can you help?
output: 214 to 216 °C

input: Reported melting point, compound CC(C)Cn1c(=O)n(C)c(=O)c2c(Br)c(C(O)c3cccnc3)sc21 (configuration not stated) : ____
output: 132 °C
